molecular target: Tau40 P301L protein (human); experiment: cell-based or functional assay
Square brackets hold non-standard residues; d marks the D form. Ends that are not written are not given here. dCit = NC(=O)NCCC[C@@H](N)C(=O)O
measurement name: IC50, Tau40 assay (ThT) (µM)
Give the value, in units of µM, as a plain number.

[dR][dR][dL][dK][dV][dR][dW][dR] [rrlkvrwr (PEPTIDE ID NO: 439)]	1.68
[dL][dK][dI][dR][dI][dCit][dY] [lkirizy (PEPTIDE ID NO: 244)]	1.03
[dK][dI][dK][dI][dK][dW] [kikikw (PEPTIDE ID NO: 66)]	1.87

Form: binder = [dL][dK][dL][dR][dI][dR][dH][dH] [lklrirhh (PEPTIDE ID NO: 415)] ; IC50, Tau40 assay (ThT) = 1.01

Form: binder = [dF][dH][dI][dH][dI][dK][dF][dH] [fhihikfh (PEPTIDE ID NO: 437)] ; IC50, Tau40 assay (ThT) = 2.02

Form: binder = [dL][dW][dR][dL][dK][dV][dR][dW] [lwrlkvrw (PEPTIDE ID NO: 202)] ; IC50, Tau40 assay (ThT) = 0.72

Data credit: patent US20200216495A1
